System: expanded OPCs
Assay: cells
Details: alamarBlue viability, NCC library compound at 1 µM, sheet "All Tox data"
Excerpt: Having established a consistent assay for measuring OL differentiation in vitro, the next step was to utilize this assay to assess the ability of a wide array of compounds to promote OL differentiation. Prior to library screening, we first established the maximum non-toxic dose of each compound in the library. […] Three days later, we assessed viability of the treated cells by measuring AlamarBlue fluorescence, a measure of cell viability (see “Methods” section). […]
Criterion: 1 µM (% DMSO) strictly under 80 % DMSO. Met: met. Not met: not met.

Regarding CN1CCN(c2nc3cc(C(F)(F)F)ccc3n3cccc23)CC1.O=C(O)/C=C\C(=O)O.O=C(O)/C=C\C(=O)O [CGS-12066B] , kindly confirm whether its 1 µM (% DMSO) is beneath 80 % DMSO. met

Regarding CC1CCN(CCCC(=O)c2ccc(F)cc2)CC1.Cl [Melperone hydrochloride] , kindly confirm whether its 1 µM (% DMSO) is beneath 80 % DMSO. not met

Regarding C[C@H]1C[C@H]2[C@@H]3CCC4=CC(=O)C=C[C@]4(C)[C@@]3(Cl)[C@@H](O)C[C@]2(C)[C@@]1(O)C(=O)CO [Beclomethasone] , kindly confirm whether its 1 µM (% DMSO) is beneath 80 % DMSO. not met

Regarding C[C@]12CCC(=O)C=C1CC[C@@H]1[C@@H]2C(=O)C[C@@]2(C)[C@H]1CC[C@]2(O)C(=O)CO [Cortisone] , kindly confirm whether its 1 µM (% DMSO) is beneath 80 % DMSO. not met

Regarding Cc1sc(N)c(C(=O)c2cccc(C(F)(F)F)c2)c1C [PD 81723] , kindly confirm whether its 1 µM (% DMSO) is beneath 80 % DMSO. not met

Regarding C[C@]12CCC(=O)C=C1CC[C@@H]1[C@@H]2[C@@H](O)C[C@@]2(C)[C@H]1CC[C@]2(O)C(=O)COC(=O)CCC(=O)O [Cortisol succinate] , kindly confirm whether its 1 µM (% DMSO) is beneath 80 % DMSO. not met

Regarding C[C@H]1C[C@H]2[C@@H]3CCC4=CC(=O)C=C[C@]4(C)[C@@]3(F)[C@@H](O)C[C@]2(C)[C@@]1(O)C(=O)CCl [Clobetasol] , kindly confirm whether its 1 µM (% DMSO) is beneath 80 % DMSO. not met

Regarding COC(=O)N1CCN(C(=O)Cc2ccc(Cl)c(Cl)c2)C(CN2CCCC2)C1 (stereo not shown) [GR 89696] , kindly confirm whether its 1 µM (% DMSO) is beneath 80 % DMSO. not met

Regarding O=C(O)C[C@H](O)C[C@H](O)/C=C/c1c(C2CC2)nc2ccccc2c1-c1ccc(F)cc1 [Itavastain] , kindly confirm whether its 1 µM (% DMSO) is beneath 80 % DMSO. met
